Quick reference for ΔTm at 10 µM among some molecules
molecular target: TIF1A (Homo sapiens, UniProt O15164); construct: purchased in-house DSF kinase panel (SGC-style construct names; the trailing letter is the construct ID); assay: DSF Tm panel; type: binding; conditions: 10 μM compound
Sequence (O15164 whole entry): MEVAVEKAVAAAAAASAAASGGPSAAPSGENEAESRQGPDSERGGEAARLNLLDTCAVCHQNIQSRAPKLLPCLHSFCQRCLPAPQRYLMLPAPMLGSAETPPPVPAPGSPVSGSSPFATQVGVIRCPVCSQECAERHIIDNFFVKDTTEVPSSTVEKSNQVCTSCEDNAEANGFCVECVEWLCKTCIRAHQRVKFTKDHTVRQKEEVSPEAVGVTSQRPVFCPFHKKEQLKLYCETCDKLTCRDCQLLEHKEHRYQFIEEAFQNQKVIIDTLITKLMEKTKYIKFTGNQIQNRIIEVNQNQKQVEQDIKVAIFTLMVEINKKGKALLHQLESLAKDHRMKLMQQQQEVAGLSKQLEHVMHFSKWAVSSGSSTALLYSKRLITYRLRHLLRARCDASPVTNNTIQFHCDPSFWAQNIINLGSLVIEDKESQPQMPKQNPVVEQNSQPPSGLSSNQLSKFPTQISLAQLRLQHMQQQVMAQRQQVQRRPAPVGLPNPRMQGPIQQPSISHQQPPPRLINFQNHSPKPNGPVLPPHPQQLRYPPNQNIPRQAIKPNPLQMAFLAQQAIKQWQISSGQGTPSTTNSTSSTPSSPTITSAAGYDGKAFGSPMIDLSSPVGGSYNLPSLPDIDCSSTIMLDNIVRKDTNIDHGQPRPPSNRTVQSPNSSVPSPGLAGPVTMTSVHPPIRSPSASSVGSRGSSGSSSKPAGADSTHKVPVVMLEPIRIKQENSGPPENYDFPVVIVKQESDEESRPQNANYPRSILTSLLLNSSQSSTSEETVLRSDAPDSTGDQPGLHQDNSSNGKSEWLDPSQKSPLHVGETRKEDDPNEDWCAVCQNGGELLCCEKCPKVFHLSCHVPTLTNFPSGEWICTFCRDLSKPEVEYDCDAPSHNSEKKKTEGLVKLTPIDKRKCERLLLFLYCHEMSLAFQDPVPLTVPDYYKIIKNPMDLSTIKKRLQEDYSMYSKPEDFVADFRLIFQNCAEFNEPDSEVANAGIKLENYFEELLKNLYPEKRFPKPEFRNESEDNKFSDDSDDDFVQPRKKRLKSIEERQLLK
State the answer as a number, implicitly in °C.

These solved cases illustrate the format of a correct answer.
input.smiles	value.measured
COc1ccc(CNC(=O)Nc2ccc3cc2OCCOCCNc2ccn4ncc-3c4n2)cc1	0.2
COc1ccccc1CNC(=O)Nc1ccc2cc1OCCOCCNc1ccn3ncc-2c3n1	0.5
C[C@H](NC(=O)Nc1ccc2cc1OCCOCCNc1ccn3ncc-2c3n1)c1ccccc1	-0.1
COc1cc(CNC(=O)Nc2ccc3cc2OCCOCCNc2ccn4ncc-3c4n2)ccc1F	0.6

With TIF1A (Homo sapiens, UniProt O15164) as the test system, `COc1ccc(CNC(=O)Nc2ccc3cc2OCCOCCNc2ccn4ncc-3c4n2)cc1F` showed ΔTm at 10 µM of 0.5

----------
test system: RPS6KA1A; test: DSF Tm panel; type: binding; conditions: 10 μM compound
Quick reference for ΔTm RPS6KA1A among some compounds

These solved cases illustrate the format of a correct answer.
compound	ΔTm RPS6KA1A
O=C(NCc1ccccc1)Nc1ccc2cc1OCCOCCNc1ccn3ncc-2c3n1 [compound 16]	1,4 °C
COc1cccc(CNC(=O)Nc2ccc3cc2OCCOCCNc2ccn4ncc-3c4n2)c1 [compound 30]	0,6 °C

Recorded ΔTm RPS6KA1A (compound Cc1cc(Cl)ccc1CNC(=O)Nc1ccc2cc1OCCOCCNc1ccn3ncc-2c3n1 [compound 23] ): 0,8 °C

Recorded ΔTm RPS6KA1A (compound O=C(NCc1ccc(C(F)(F)F)cc1)Nc1ccc2cc1OCCOCCNc1ccn3ncc-2c3n1 [compound 28] ): 0,2 °C

----------
biological target: SLK (Homo sapiens); test: DSF Tm panel; type: binding; set-up: purchased in-house DSF kinase panel (SGC-style construct names; the trailing letter is the construct ID); settings: 10 μM compound
measurement.label: ΔTm at 10 µM (°C)
State the answer as a number, implicitly in °C.

With SLK (Homo sapiens) as the test system, Cc1cc(Br)ccc1CNC(=O)Nc1ccc2cc1OCCOCCNc1ccn3ncc-2c3n1 [compound 24] showed ΔTm at 10 µM of 2.9

With SLK (Homo sapiens) as the test system, O=C(NCc1ccccc1Cl)Nc1ccc2cc1OCCOCCNc1ccn3ncc-2c3n1 [compound 17] showed ΔTm at 10 µM of 4.8

With SLK (Homo sapiens) as the test system, COc1cccc(CNC(=O)Nc2ccc3cc2OCCOCCNc2ccn4ncc-3c4n2)c1 [compound 30] showed ΔTm at 10 µM of 2.1

----------
target: OSR1A (Homo sapiens, UniProt O95747); construct: purchased in-house DSF kinase panel (SGC-style construct names; the trailing letter is the construct ID); assay: DSF Tm panel; assay type: binding; conditions: 10 μM compound
Sequence (O95747 17-291): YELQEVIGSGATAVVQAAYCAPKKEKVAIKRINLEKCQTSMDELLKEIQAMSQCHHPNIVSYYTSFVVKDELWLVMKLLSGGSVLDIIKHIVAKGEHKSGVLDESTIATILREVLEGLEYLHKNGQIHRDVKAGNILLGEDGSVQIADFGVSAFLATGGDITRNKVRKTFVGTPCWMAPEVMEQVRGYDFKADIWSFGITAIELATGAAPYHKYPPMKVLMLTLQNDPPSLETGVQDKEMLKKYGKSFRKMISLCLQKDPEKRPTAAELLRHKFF
measurement.label: ΔTm at 10 µM (°C)
State the answer as a number, implicitly in °C.

molecule	measurement.label	value.measured
O=C(NCc1ccc(Cl)cc1Cl)Nc1ccc2cc1OCCOCCNc1ccn3ncc-2c3n1 [compound 20]	ΔTm at 10 µM	1.8
C[C@H](NC(=O)Nc1ccc2cc1OCCOCCNc1ccn3ncc-2c3n1)c1ccccc1 [compound 34]	ΔTm at 10 µM	1.2
Cc1ccc(F)cc1CNC(=O)Nc1ccc2cc1OCCOCCNc1ccn3ncc-2c3n1 [compound 26]	ΔTm at 10 µM	1.2

Query molecule follows.
Recorded ΔTm at 10 µM (molecule O=C(NCc1cccc(Cl)c1)Nc1ccc2cc1OCCOCCNc1ccn3ncc-2c3n1 [compound 18] ): 1.7
